Target or test system: PARP1 (Homo sapiens, UniProt P09874)
Construct: purchased BPS 80551
Sequence (P09874 whole entry): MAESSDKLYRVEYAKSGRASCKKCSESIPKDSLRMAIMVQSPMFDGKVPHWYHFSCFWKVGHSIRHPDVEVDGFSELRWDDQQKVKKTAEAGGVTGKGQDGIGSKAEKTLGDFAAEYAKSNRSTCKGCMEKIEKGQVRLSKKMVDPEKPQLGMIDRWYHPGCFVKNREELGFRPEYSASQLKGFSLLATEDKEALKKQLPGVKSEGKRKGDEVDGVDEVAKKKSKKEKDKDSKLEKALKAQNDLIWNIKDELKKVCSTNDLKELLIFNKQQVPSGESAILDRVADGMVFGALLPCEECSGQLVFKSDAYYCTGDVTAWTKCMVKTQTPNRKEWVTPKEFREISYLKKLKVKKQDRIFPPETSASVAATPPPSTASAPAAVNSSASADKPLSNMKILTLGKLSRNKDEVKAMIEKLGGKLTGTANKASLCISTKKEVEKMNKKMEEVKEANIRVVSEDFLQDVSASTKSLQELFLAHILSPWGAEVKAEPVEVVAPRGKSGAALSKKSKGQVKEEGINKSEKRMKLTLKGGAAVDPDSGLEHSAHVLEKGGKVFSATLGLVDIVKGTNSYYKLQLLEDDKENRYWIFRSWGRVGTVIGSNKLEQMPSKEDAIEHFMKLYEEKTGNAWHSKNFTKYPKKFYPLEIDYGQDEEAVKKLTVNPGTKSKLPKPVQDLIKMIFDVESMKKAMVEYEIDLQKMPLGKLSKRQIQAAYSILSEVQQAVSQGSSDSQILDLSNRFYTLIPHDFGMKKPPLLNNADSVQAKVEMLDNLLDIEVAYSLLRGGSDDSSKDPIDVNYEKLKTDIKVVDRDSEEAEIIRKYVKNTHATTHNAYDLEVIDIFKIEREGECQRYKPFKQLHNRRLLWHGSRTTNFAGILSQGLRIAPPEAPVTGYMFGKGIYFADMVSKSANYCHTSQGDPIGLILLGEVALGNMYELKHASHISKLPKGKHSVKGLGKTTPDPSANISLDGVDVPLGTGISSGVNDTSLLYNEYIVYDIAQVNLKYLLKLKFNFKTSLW
Assay protocol: Assay on PARP1 protein activity (chemiluminescence assay kit)
Assay type: biochemical
Test conditions: PARP1 enzyme, 1 h room temperature
pIC50: −log10 of the molar value.
Entries and their measured pIC50 follow.
Property label: pIC50

CNC(=O)n1cc2c(n1)CN(C1CN(Cc3ccc4cc(C(F)(F)F)c(=O)[nH]c4c3)C1)C2	≥ 9.00
CCc1nc2ccc(CN3C[C@H](N4Cc5cn(C(=O)NC)nc5C4)[C@@H]3C)cc2[nH]c1=O	≥ 9.00
CNC(=O)n1cc2c(n1)CN(C1CN(Cc3ccc4cc(C5CC5)c(=O)[nH]c4c3)C1)C2	≥ 9.00
CNC(=O)n1cc2c(n1)CN(C1CN(Cc3ccc4cc(C(F)(F)F)c(=O)[nH]c4c3)[C@H]1C)C2 (single isomer, unassigned)	≥ 8.00
